From: paper PMC8370991

- tested_system: recombinant HTLV-1 IN (Human T-cell leukemia virus 1)
- Construct: made in house
- Sequence (P03362 1168-1462): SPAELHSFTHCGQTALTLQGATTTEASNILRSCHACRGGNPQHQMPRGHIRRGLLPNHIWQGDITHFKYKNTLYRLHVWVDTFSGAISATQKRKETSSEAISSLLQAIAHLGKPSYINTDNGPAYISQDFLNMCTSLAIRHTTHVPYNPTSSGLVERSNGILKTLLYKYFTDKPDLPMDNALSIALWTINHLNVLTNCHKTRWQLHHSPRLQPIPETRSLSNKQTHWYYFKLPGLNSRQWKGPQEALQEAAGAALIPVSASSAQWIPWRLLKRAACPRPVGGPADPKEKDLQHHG
- protocol: In vitro integration strand transfer assay with HTLV-1 IN
- Type: biochemical
- condition_label: Replicate 3; read-out: HTLV-1 IN strand transfer IC50
recorded_endpoint: IC50

{"query_smiles": "O=C(NCc1ccc(F)cc1F)c1c(NCCO)c2cc(CCCCCO)cnc2n(O)c1=O", "reported_result": "232 nM"}
{"query_smiles": "Nc1c(C(=O)NCc2ccc(F)cc2F)c(=O)n(O)c2ncc(-c3ccccc3)cc12", "reported_result": "466 nM"}
{"query_smiles": "Nc1c(C(=O)NCc2ccc(F)cc2F)c(=O)n(O)c2ncc(CCS(=O)(=O)c3ccccc3)cc12", "reported_result": "126 nM"}
{"query_smiles": "Nc1c(C(=O)NCc2ccc(F)cc2F)c(=O)n(O)c2ncc(CCCOCCO)cc12", "reported_result": "173 nM"}
{"query_smiles": "Nc1c(C(=O)NCc2ccc(F)cc2F)c(=O)n(O)c2ncc(CCCCCCO)cc12", "reported_result": "175 nM"}
{"query_smiles": "CC(C)NC(=O)/C=C/c1cnc2c(c1)c(N)c(C(=O)NCc1ccc(F)cc1F)c(=O)n2O", "reported_result": "229 nM"}
{"query_smiles": "O=C(NCc1ccc(F)cc1F)c1c(NCCO)c2cccnc2n(O)c1=O", "reported_result": "392 nM"}
{"query_smiles": "Nc1c(C(=O)NCc2ccc(F)cc2F)c(=O)n(O)c2ncc(CCCCCO)cc12", "reported_result": "269 nM"}
{"query_smiles": "CN(C)C(=O)CCc1cnc2c(c1)c(N)c(C(=O)NCc1ccc(F)cc1F)c(=O)n2O", "reported_result": "76 nM"}
